- measured_target: PAFR (Homo sapiens, UniProt P25105)
- Sequence (P25105 whole entry): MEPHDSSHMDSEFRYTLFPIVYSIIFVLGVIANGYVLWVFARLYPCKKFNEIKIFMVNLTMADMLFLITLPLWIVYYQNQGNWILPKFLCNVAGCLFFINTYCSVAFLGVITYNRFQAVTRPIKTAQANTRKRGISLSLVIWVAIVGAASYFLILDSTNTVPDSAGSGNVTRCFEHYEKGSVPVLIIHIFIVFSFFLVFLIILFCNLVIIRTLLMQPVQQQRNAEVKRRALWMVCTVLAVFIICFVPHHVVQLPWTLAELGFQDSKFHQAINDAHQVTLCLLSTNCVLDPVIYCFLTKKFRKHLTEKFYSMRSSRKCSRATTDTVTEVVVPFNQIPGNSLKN
- run_description: cellular HTRF IP1 assay: inhibition of PAFR activation by PAF C-16 ligand (endpoint assay)
- Format: cell-based
- Set-up: expressed in transfected cells; host or cells: HEK293
- assay_conditions: HEK293 cells overexpressing human PAFR; PAF ligand 11 nM; Table 2
Parameter: log10(IC50). Scope: all listed entries.
assay_metric: log10(IC50) (log10 of the value in nM)

compound: Cc1nnc2n1-c1sc3c(c1C(c1ccccc1Cl)=NC21CC1)C[C@H](C(=O)NC1(C(C)(C)O)CC1)C3 [Example 122]
log10(IC50): 1.57
--
compound: Cc1nnc2n1-c1sc3c(c1C(c1ccccc1Cl)=NC21CC1)C[C@H](C(=O)N[C@H]1CCc2cccc(F)c21)C3 [Example 53]
log10(IC50): -0.30
--
compound: CCN(C(=O)[C@@H]1Cc2sc3c(c2C1)C(c1ccccc1Cl)=NC1(CC1)c1nnc(C)n1-3)C1CCOCC1 [Example 83]
log10(IC50): 0.84
--
compound: Cc1nnc2n1-c1sc3c(c1C(c1ccccc1Cl)=NC21CC1)C[C@H](C(=O)N[C@H]1CC[C@H](C(F)(F)F)CC1)C3 [Example 15]
log10(IC50): 0.00
--
compound: Cc1nnc2n1-c1sc3c(c1C(c1ccccc1Cl)=NC21CC1)C[C@H](C(=O)NC1CC1)C3 [Example 74]
log10(IC50): 0.74
--
compound: Cc1nnc2n1-c1sc3c(c1C(c1ccccc1Cl)=NC21CC1)C[C@H](C(=O)NC1CCOC(C)(C)C1)C3 (some centres unmarked) [Example 33]
log10(IC50): 1.04
--
compound: Cc1nnc2n1-c1sc3c(c1C(c1ccccc1Cl)=NC21CC1)C[C@H](C(=O)N1CCOC(C)(C)C1)C3 [Example 10]
log10(IC50): 0.72
--
compound: Cc1nnc2n1-c1sc3c(c1C(c1ccccc1Cl)=NC21CC1)C[C@H](C(=O)N[C@H]1CC[C@@H](F)CC1)C3 [Example 36]
log10(IC50): 0.54
--
compound: Cc1nnc2n1-c1sc3c(c1C(c1ccccc1Cl)=NC21CC1)C[C@H](C(=O)NC1CCc2ccc(F)cc21)C3 (some centres unmarked) [Example 22]
log10(IC50): -0.22
--
compound: Cc1nnc2n1-c1sc3c(c1C(c1ccccc1Cl)=NC21CC1)C[C@H](C(=O)N1CC2CC1C2)C3 [Example 11]
log10(IC50): 0.56
--
compound: COc1cc(C2(NC(=O)[C@@H]3Cc4sc5c(c4C3)C(c3ccccc3Cl)=NC3(CC3)c3nnc(C)n3-5)CC2)ccn1 [Example 85]
log10(IC50): 0.59
--
compound: Cc1nnc2n1-c1sc3c(c1C(c1ccccc1Cl)=NC21CC1)C[C@H](C(=O)NC1CCC1(C)C)C3 (some centres unmarked) [Example 47]
log10(IC50): 0.20
--
compound: CO[C@@H]1CCCCC1N(C)C(=O)[C@@H]1Cc2sc3c(c2C1)C(c1ccccc1Cl)=NC1(CC1)c1nnc(C)n1-3 (some centres unmarked) [Example 84]
log10(IC50): 0.36
--
compound: Cc1nnc2n1-c1sc3c(c1C(c1ccccc1Cl)=NC21CC1)C[C@H](C(=O)NC1COc2ccccc21)C3 (some centres unmarked) [Example 55]
log10(IC50): 0.15

Each recorded value in this set is attributed to patent US11992494B2.
